# Subject of test: KPNA4 68-487, O00629
# Sequence (O00629 68-487): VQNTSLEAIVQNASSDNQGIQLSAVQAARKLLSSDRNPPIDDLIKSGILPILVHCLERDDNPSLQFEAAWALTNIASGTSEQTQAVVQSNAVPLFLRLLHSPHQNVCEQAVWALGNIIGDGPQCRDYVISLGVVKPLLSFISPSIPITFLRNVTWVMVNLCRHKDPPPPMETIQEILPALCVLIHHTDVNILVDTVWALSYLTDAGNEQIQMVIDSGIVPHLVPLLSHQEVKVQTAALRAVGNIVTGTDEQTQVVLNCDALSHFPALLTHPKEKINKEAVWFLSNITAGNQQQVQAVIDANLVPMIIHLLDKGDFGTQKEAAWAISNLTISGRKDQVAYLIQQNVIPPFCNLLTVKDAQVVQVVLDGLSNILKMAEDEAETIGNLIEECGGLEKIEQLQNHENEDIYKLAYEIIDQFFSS

Binder | selected by phage display
LESKRPRLEQVSDSHF | confidence 2 (active)
KRPHQEFGISSQGAYL [PDE3B, Q13370] | confidence 2 (active)
VHTTSKRPRLDPVLAD [FAM90A22P, A8MWA6] | confidence 2 (active)
AGVKRSAAEMYGSVTE [HNRNPC, P07910] | confidence 3 (active)
HEISLKRSYESVEGNI | confidence 3 (active)
MSSSPVKRQRMESALD [TALDO1, P37837] | confidence 3 (active)
